Target: 5-HT2A receptor (Homo sapiens)
Construct: host or cells: HEK293
Sequence (P28223 whole entry): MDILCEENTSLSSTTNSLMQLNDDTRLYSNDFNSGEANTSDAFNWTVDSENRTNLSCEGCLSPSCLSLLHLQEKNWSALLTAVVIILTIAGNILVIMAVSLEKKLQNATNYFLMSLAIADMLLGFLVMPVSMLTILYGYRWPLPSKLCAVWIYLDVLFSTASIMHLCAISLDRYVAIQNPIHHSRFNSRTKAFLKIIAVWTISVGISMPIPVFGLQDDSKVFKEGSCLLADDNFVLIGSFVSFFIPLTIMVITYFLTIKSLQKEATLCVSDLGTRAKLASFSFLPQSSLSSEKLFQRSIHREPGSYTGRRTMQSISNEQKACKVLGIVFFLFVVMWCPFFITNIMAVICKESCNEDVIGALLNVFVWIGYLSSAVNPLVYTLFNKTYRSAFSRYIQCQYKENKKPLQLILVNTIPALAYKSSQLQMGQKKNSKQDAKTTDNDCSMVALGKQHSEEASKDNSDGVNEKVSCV
Test: biochemical
Assay type: binding
Conditions: 1 nM [^3H]ketanserin, HEK293 stable cell line; read-out: 5-HT2A Receptor Ki (nM) ([^3H]ketanserin)
Could you mark each record True if its Ki falls strictly under 2 nM, and False if it equals or exceeds it?

compound: CCC[C@@H](C)NC(=O)[C@@H]1C=C2c3cccc4[nH]c(Br)c(c34)C[C@H]2N(C)C1 [Compound 45]
assigned_class: True

compound: CCCN1C[C@@H](C(=O)N[C@H](C)CC)C=C2c3cccc4[nH]cc(c34)C[C@H]21 [Compound 3a]
assigned_class: False

compound: C[C@H]1C[C@H](C)N1C(=O)[C@@H]1C=C2c3cccc4[nH]cc(c34)C[C@H]2N(C)C1 [Int11]
assigned_class: False

compound: CN1C[C@H](C(=O)N2CCCC2)C=C2c3cccc4[nH]cc(c34)C[C@H]21 [Int22]
assigned_class: False

compound: CN1C[C@H](C(=O)N(CCF)CCF)C=C2c3cccc4[nH]cc(c34)C[C@H]21 [Compound 38]
assigned_class: True

compound: CCC[C@@H](C)NC(=O)[C@H]1C=C2c3cccc4[nH]cc(c34)C[C@H]2N(C)C1 [Int17a]
assigned_class: False

compound: CCN(CC)C(=O)[C@@H]1C=C2c3cccc4[nH]c(Br)c(c34)C[C@H]2N(CCCF)C1 [Compound 41]
assigned_class: True

compound: CCC(CC)NC(=O)[C@@H]1C=C2c3cccc4[nH]c(Br)c(c34)C[C@H]2N(C)C1 [Compound 44]
assigned_class: True

###

Molecular target: 5-HT2A receptor (Homo sapiens)
Construct: host or cells: HEK293
Assay: cell-based
Type: cell-based
Details: Ca^2+ flux, agonist; read-out: 5-HT2A EC50
Method: Functional Assays at 5-HT2A, 5-HT2B, and 5-HT1A. Agonist activity at 5-HT2A, 5-HT2B, and 5-HT1A receptors was determined using a FLIPR Ca^2+ flux assay at WuXi AppTec (Hong Kong) Limited according to their standard protocols. […] 10 μL of references and compounds were then transferred from the compound plate into the cell plate and the fluorescent signal was read.
pEC50: −log10 of the molar value.
Below, each entry is listed with its recorded pEC50.

compound: C[C@H]1C[C@H](C)N1C(=O)[C@@H]1C=C2c3cccc4[nH]cc(c34)C[C@H]2N(C)C1 [Int11]
pEC50: 7.43
//
compound: CC[C@@H](C)NC(=O)[C@@H]1C=C2c3cccc4[nH]cc(c34)C[C@H]2N(CCC(F)(F)F)C1 [Compound 40]
pEC50: 6.77
//
compound: CCN(CC)C(=O)[C@@H]1C=C2c3cccc4[nH]cc(c34)C[C@H]2N(Cc2cccc(OC)c2)C1 [Compound 18]
pEC50: 6.64
//
compound: CCC[C@@H](C)NC(=O)[C@@H]1C=C2c3cccc4[nH]cc(c34)C[C@H]2N(CCC)C1 [Compound 7]
pEC50: 7.88

###

Target: UniProtKB P28335
Sequence (P28335 33-458): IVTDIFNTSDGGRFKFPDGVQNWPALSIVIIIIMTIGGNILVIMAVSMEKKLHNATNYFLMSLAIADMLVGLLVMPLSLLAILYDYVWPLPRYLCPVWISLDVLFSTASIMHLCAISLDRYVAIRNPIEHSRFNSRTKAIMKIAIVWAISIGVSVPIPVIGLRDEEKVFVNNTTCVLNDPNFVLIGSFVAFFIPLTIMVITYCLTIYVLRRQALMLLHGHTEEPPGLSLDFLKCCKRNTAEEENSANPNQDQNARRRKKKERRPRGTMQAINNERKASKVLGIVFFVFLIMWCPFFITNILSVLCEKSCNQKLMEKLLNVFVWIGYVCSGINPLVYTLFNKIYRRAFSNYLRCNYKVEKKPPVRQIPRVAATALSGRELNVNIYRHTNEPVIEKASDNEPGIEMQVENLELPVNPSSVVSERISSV
Assay: cell-based
Details: Ca^2+ flux, agonist
pEC50: −log10 of the molar value.
// values below are reported pEC50

compound: CCC[C@@H](C)NC(=O)[C@H]1C=C2c3cccc4[nH]cc(c34)C[C@H]2N(C)C1 [Int17a]
operator: =
pEC50: 6.02
//
compound: CC[C@@H](C)NC(=O)[C@H]1C=C2c3cccc4[nH]cc(c34)C[C@H]2N(CC)C1
operator: =
pEC50: 6.09
//
compound: CCCN1C[C@H](C(=O)N[C@H](C)CC)C=C2c3cccc4[nH]cc(c34)C[C@H]21
operator: =
pEC50: 9.08
//
compound: CCN(CC)C(=O)[C@@H]1C=C2c3cccc4[nH]cc(c34)C[C@H]2N(Cc2ccccc2OC)C1
operator: <
pEC50: 5.00

###

Molecular target: 5-HT1B receptor (Homo sapiens)
Sequence (P28222 whole entry): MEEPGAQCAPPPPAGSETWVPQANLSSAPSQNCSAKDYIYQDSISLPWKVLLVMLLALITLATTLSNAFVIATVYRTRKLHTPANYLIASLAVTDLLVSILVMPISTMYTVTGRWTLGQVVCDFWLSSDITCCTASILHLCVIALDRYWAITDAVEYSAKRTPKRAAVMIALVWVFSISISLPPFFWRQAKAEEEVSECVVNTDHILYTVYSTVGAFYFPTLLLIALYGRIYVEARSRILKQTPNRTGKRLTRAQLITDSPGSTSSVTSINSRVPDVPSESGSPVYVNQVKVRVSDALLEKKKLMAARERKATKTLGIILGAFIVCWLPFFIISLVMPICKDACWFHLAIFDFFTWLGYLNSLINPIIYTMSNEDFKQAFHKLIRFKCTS
Test: cAMP accumulation agonist assay at 5-HT1B
Type: cell-based
Details: cAMP, agonist; read-out: 5-HT1B EC50
measurement_name: log10 of EC50 (log10 of the value in nM)

structure_notation: C[C@H]1C[C@H](C)N1C(=O)[C@@H]1C=C2c3cccc4[nH]cc(c34)C[C@H]2N(CCCF)C1
measurement_name: log10 of EC50
result_number: 2.87
//
structure_notation: CC[C@@H](C)NC(=O)[C@@H]1C=C2c3cccc4[nH]c(Br)c(c34)C[C@H]2N(C)C1
measurement_name: log10 of EC50
result_number: 2.49
//
structure_notation: CCCN1C[C@H](C(=O)N(CC)CC)C=C2c3cccc4[nH]c(Br)c(c34)C[C@H]21
measurement_name: log10 of EC50
result_number: 2.42
//
structure_notation: CCCN1C[C@H](C(=O)N2[C@@H](C)C[C@@H]2C)C=C2c3cccc4[nH]cc(c34)C[C@H]21
measurement_name: log10 of EC50
result_number: 1.99
//
structure_notation: CC[C@@H](C)NC(=O)[C@@H]1C=C2c3cccc4[nH]cc(c34)C[C@H]2N(CCC(F)(F)F)C1
measurement_name: log10 of EC50
result_number: 3.92
//
structure_notation: CCN(CC)C(=O)[C@@H]1C=C2c3cccc4[nH]cc(c34)C[C@H]2N(CCC(F)(F)F)C1
measurement_name: log10 of EC50
result_number: 2.29
//
structure_notation: CCN(CC)C(=O)[C@@H]1C=C2c3cccc4[nH]cc(c34)C[C@H]2N(CCc2ccccc2OC)C1
measurement_name: log10 of EC50
result_number: 2.65

###

Target: 5-HT2A receptor (Homo sapiens)
Construct: host or cells: HEK293
Test: PathHunter beta-arrestin recruitment assay at 5-HT2A
Type: cell-based
pEC50: −log10 of the molar value.

compound: CCCN1C[C@H](C(=O)N2[C@@H](C)C[C@@H]2C)C=C2c3cccc4[nH]cc(c34)C[C@H]21 [Compound 4]
pEC50: 8.84
--
compound: CCCN1C[C@H](C(=O)N(CC)CC)C=C2c3cccc4[nH]cc(c34)C[C@H]21 [Compound 1]
pEC50: 8.70
--
compound: CCCN1C[C@H](C(=O)NC(CC)CC)C=C2c3cccc4[nH]cc(c34)C[C@H]21 [Compound 6]
pEC50: 8.72
--
compound: CCC(CC)NC(=O)[C@@H]1C=C2c3cccc4[nH]cc(c34)C[C@H]2N(C)C1 [Int14]
pEC50: 8.83

###

Assay: Metabolic stability in human liver microsomes (HLM)
Type: in vitro ADME
Details: 1 μM, 0.50 mg protein per mL
For each record, check the reported t1/2: if it is below 7 min write class 1, else write class 0.

compound: CCCN1C[C@H](C(=O)N(CC)CC)C=C2c3cccc4[nH]cc(c34)C[C@H]21 [Compound 1]
assigned_class: class 0
--
compound: C[C@H]1C[C@H](C)N1C(=O)[C@@H]1C=C2c3cccc4[nH]cc(c34)C[C@H]2N(C)C1 [Int11]
assigned_class: class 0
--
compound: CC[C@@H](C)NC(=O)[C@@H]1C=C2c3cccc4[nH]cc(c34)C[C@H]2N(C)C1 [Int8]
assigned_class: class 0
--
compound: CCN(CC)C(=O)[C@@H]1C=C2c3cccc4[nH]cc(c34)C[C@H]2N(Cc2ccccc2O)C1 [Compound 16]
assigned_class: class 1
--
compound: CCCN1C[C@H](C(=O)N2[C@@H](C)C[C@@H]2C)C=C2c3cccc4[nH]cc(c34)C[C@H]21 [Compound 4]
assigned_class: class 0
--
compound: CC[C@@H](C)NC(=O)[C@H]1C=C2c3cccc4[nH]cc(c34)C[C@H]2N(CC)C1 [Compound 5a]
assigned_class: class 1
--
compound: CCN(CC)C(=O)[C@@H]1C=C2c3cccc4[nH]cc(c34)C[C@H]2N(CCc2ccc(OC)cc2)C1 [Compound 21]
assigned_class: class 1

###

Target: 5-HT1A receptor (Homo sapiens)
Construct: host or cells: CHO cells
Sequence (P08908 whole entry): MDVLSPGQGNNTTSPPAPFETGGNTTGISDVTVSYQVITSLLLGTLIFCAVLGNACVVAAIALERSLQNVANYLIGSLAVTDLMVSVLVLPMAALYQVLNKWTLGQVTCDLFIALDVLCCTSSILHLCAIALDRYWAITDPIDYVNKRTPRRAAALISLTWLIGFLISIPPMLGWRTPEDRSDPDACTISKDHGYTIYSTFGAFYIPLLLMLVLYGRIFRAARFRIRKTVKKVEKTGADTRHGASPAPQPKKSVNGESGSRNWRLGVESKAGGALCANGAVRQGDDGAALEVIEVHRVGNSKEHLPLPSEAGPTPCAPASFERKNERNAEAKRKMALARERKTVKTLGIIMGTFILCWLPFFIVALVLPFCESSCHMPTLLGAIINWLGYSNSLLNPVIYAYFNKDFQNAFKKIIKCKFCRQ
Assay: cell-based
Conditions: Ca^2+ flux, agonist
Experimental: Functional Assays at 5-HT2A, 5-HT2B, and 5-HT1A. Agonist activity at 5-HT2A, 5-HT2B, and 5-HT1A receptors was determined using a FLIPR Ca^2+ flux assay at WuXi AppTec (Hong Kong) Limited according to their standard protocols. […] 10 μL of references and compounds were then transferred from the compound plate into the cell plate and the fluorescent signal was read.
Quick reference: 5-HT1A % Act @ Max Dose of the listed items.

compound: CCC(CC)NC(=O)[C@@H]1C=C2c3cccc4[nH]c(Br)c(c34)C[C@H]2N(C)C1
unit_abbrev: %
5-HT1A % Act @ Max Dose: 16.56
//
compound: CCN(CC)C(=O)[C@@H]1C=C2c3cccc4[nH]c(Br)c(c34)C[C@H]2N(CCCF)C1
unit_abbrev: %
5-HT1A % Act @ Max Dose: 39.75
//
compound: CCC[C@@H](C)NC(=O)[C@@H]1C=C2c3cccc4[nH]c(Br)c(c34)C[C@H]2N(C)C1
unit_abbrev: %
5-HT1A % Act @ Max Dose: 12.53
//
compound: CCCN1C[C@H](C(=O)N(CC)CC)C=C2c3cccc4c3C(CN4)C[C@H]21 (mixture of isomers)
unit_abbrev: %
5-HT1A % Act @ Max Dose: 88.68

Numbers sourced from patent US20230116703A1.
